The origin of these recorded values is patent US20150147342A1.

Target: T1, Dimeric fibrinogen-like domain of human Ang-2 conjugated to human IgG1 (human)
T1 construct: also called Dimeric Human Ang-2FD; Human Ang-2FD-hFc
T1 sequence (chain, as listed by the source limits assumed): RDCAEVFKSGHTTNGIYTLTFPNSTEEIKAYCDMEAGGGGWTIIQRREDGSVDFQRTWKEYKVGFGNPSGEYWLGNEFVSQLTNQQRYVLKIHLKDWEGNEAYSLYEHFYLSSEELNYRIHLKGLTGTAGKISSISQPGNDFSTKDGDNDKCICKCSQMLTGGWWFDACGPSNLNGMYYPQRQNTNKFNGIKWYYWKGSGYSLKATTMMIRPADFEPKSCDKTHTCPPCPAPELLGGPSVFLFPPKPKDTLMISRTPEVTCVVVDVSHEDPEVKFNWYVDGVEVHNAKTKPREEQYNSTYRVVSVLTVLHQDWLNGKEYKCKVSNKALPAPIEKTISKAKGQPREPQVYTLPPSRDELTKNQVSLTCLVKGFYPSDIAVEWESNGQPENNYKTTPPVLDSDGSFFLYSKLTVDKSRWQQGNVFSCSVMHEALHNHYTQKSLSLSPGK
Assay: SPR, antibody captured, room temp
outcome-measure: pKd
Schema: pKd number; meaning minus log10 of the concentration expressed in molar units.

Worked examples follow.
* H2M730N (antibody, V domains shown) VH: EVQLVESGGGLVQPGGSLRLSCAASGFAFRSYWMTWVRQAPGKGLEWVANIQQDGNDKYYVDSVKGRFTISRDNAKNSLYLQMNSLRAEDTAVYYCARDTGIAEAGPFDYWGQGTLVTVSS VL: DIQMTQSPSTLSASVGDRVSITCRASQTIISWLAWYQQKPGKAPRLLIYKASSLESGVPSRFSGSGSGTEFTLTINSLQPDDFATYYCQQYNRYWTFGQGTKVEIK | 9.68
* H1M732N (antibody, V domains shown) VH: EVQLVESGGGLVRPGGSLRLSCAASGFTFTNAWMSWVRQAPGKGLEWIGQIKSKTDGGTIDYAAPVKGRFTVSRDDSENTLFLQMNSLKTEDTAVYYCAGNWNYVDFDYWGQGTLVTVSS VL: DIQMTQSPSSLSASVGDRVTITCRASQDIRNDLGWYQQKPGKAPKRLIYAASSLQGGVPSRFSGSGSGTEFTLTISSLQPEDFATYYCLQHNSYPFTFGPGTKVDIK | 9.32
* H1M728N (antibody, V domains shown) VH: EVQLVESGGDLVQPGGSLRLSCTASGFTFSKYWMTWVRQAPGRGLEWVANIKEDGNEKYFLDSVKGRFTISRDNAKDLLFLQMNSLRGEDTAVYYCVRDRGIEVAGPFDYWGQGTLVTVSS VL: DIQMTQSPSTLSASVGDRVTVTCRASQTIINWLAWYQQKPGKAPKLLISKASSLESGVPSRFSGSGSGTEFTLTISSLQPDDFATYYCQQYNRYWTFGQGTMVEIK | 9.86

query: # pKd lookup, item H2M750N (antibody, V domains shown) VH: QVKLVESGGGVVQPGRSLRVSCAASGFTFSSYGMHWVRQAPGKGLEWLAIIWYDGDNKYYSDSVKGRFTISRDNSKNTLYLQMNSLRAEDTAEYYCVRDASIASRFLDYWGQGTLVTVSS VL: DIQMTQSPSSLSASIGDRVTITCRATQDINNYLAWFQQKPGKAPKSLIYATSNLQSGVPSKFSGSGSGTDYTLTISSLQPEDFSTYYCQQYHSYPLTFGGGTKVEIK
result: 9.44
